experimental_system: T1, GST-human NOGO-A56 (human, UniProt P08515 1-218 = GST)
T1 construct: GST-tagged fusion expressed in E. coli BL21 and purified on glutathione-sepharose; coated on ELISA plates or amine-coupled to a CM5 chip; also called hNOGO; recombinant human NOGO
T1 sequence (P08515 1-218, tags or fused parts left off): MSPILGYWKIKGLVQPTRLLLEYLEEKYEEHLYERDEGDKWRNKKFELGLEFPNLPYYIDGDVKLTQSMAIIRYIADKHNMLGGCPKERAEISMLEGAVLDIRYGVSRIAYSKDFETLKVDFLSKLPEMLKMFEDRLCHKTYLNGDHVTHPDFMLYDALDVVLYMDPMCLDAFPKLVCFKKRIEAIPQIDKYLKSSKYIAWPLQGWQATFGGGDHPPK
experiment_notes: SPR (Biacore 3000), GST-human NOGO-A56 on CM5, antibody as analyte; single experiment
Below: a set of entries, each annotated with reported koff.
I only need the number, in s⁻¹, no unit after it.

These recorded examples may help you get a feel for the data.
{"columns": ["binder", "units_of_measure", "koff"],
 "data": [
  ["HcLc (chimera of 2A10: murine 2A10 VH and VL with human IgG constant regions) (antibody, V domains shown, Human gamma1 mutated constant region and human kappa; also called 2A10 chimeric antibody; the chimera) VH: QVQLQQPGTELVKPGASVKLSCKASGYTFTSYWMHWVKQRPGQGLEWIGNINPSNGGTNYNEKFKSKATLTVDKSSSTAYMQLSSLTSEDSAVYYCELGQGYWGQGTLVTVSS VL: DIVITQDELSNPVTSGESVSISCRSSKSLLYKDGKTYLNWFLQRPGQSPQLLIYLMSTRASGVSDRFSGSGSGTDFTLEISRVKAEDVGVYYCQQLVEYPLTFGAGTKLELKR", "s⁻¹", 0.00412],
  ["H1L11 (antibody, human IgG1, kappa, V domains shown, Earlier humanised 2A10) VH: QVQLVQSGAEVKKPGASVKVSCKASGYTFTSYWMHWVRQAPGQGLEWMGNINPSNGGTNYNEKFKSRVTMTRDTSTSTVYMELSSLRSEDTAVYYCELGQGYWGQGTLVTVSS VL: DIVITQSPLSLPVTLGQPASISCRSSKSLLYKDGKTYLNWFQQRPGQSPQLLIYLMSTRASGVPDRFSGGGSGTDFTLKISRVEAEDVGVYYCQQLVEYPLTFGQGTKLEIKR", "s⁻¹", 0.0284]
]}

// next item, koff requested
// query Look at this binder and give its reported koff. H6L13 (antibody, human IgG1, kappa, V domains shown, Humanised 2A10; Human gamma1 mutated constant region and human kappa; also called H6L13 FL) VH: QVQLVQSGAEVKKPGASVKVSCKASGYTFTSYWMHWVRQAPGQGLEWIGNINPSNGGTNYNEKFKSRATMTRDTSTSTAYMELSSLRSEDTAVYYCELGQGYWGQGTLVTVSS VL: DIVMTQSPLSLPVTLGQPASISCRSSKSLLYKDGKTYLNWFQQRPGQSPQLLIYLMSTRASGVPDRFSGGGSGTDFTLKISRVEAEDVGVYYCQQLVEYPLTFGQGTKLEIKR
// result 0.013
